Taken from the Immune Epitope Database (IEDB).

# target.or.system: HLA-B*15:01
# experiment.notes: IEDB peptide-MHC binding, purified MHC/competitive/fluorescence; filed as Kd, often an IC50 or EC50 that approximates it; bounds were set here for any values at or beyond the usual limits of such assays
# condition: source organism: Vibrio parahaemolyticus RIMD 2210633
outcome.measure: pKd
Quick note: pKd means taking -log10 of the concentration in moles per liter.

Answer with the recorded pKd for the sequence listed here: ILRPLGIEY
6.55

---

# target.or.system: HLA-A*11:01
# experiment.notes: IEDB peptide-MHC binding, purified MHC/direct/fluorescence; filed as Kd, often an IC50 or EC50 that approximates it; bounds were set here for any values at or beyond the usual limits of such assays
# condition: source organism: Influenza A virus (A/New Caledonia/20/1999(H1N1))
outcome.measure: Kd

Supply reported Kd belonging to this sequence: WMACHSAAF
≥ 20 µM
